Biological target: Heat shock protein HSP90 (Homo sapiens, UniProt P07900+P08238)
Assay: Concentration required to inhibit Bis-ANS activity by recombinant heat shock protein 90 (rHSP90) conformational assay
Listed here: items and their measured IC50.
EXPERIMENTAL_READOUT: IC50 (nM)

CPD_SMILES: CO[C@H]1/C=C\C=C(/C)C(=O)NC2=CC(=O)C(NC(=O)c3ccc(CN4CCCCC4)cc3)=C(C[C@@H](C)C[C@H](OC)[C@H](O)[C@@H](C)/C=C(\C)[C@@H]1OC(N)=O)C2=O
ASSAY_SYSTEM: Heat shock protein HSP90 (Homo sapiens, UniProt P07900+P08238)
EXPERIMENTAL_READOUT: IC50
NUMBER: 2100

CPD_SMILES: COc1cccc(C(=O)NC2=C3C[C@@H](C)C[C@H](OC)[C@H](O)[C@@H](C)/C=C(\C)[C@H](OC(N)=O)[C@@H](OC)/C=C\C=C(/C)C(=O)NC(=CC2=O)C3=O)c1
ASSAY_SYSTEM: Heat shock protein HSP90 (Homo sapiens, UniProt P07900+P08238)
EXPERIMENTAL_READOUT: IC50
NUMBER: 900

CPD_SMILES: CO[C@H]1/C=C\C=C(/C)C(=O)NC2=CC(=O)C(NC(=O)c3ccc(CN(C)C)cc3)=C(C[C@@H](C)C[C@H](OC)[C@H](O)[C@@H](C)/C=C(\C)[C@@H]1OC(N)=O)C2=O
ASSAY_SYSTEM: Heat shock protein HSP90 (Homo sapiens, UniProt P07900+P08238)
EXPERIMENTAL_READOUT: IC50
NUMBER: 3000

CPD_SMILES: COc1ccc(C(=O)NC2=C3C[C@@H](C)C[C@H](OC)[C@H](O)[C@@H](C)/C=C(\C)[C@H](OC(N)=O)[C@@H](OC)/C=C\C=C(/C)C(=O)NC(=CC2=O)C3=O)cc1
ASSAY_SYSTEM: Heat shock protein HSP90 (Homo sapiens, UniProt P07900+P08238)
EXPERIMENTAL_READOUT: IC50
NUMBER: 4000

CPD_SMILES: CO[C@H]1/C=C\C=C(/C)C(=O)NC2=CC(=O)C(NC(=O)OCCCCN3CCOCC3)=C(C[C@@H](C)C[C@H](OC)[C@H](O)[C@@H](C)/C=C(\C)[C@@H]1OC(N)=O)C2=O
ASSAY_SYSTEM: Heat shock protein HSP90 (Homo sapiens, UniProt P07900+P08238)
EXPERIMENTAL_READOUT: IC50
NUMBER: 1000

###

Here, each record is paired with measured IC50 data.
Molecular target: Heat shock protein HSP90 (Homo sapiens, UniProt P07900+P08238)
Experiment: Concentration of test compound required for inhibition of binding of rHsp90 in MCF-7 cell lysate
Format: cell-based

CPD_SMILES: CO[C@H]1/C=C\C=C(/C)C(=O)NC2=CC(=O)C(NC(=O)OCC(C)C)=C(C[C@@H](C)C[C@H](OC)[C@H](O)[C@@H](C)/C=C(\C)[C@@H]1OC(N)=O)C2=O
IC50 / nM: 3
--
CPD_SMILES: CO[C@H]1/C=C\C=C(/C)C(=O)NC2=CC(=O)C(NC(=O)c3ccc(CN(C)C)cc3)=C(C[C@@H](C)C[C@H](OC)[C@H](O)[C@@H](C)/C=C(\C)[C@@H]1OC(N)=O)C2=O
IC50 / nM: 15
--
CPD_SMILES: CCN(Cc1ccccc1)Cc1ccc(C(=O)NC2=C3C[C@@H](C)C[C@H](OC)[C@H](O)[C@@H](C)/C=C(\C)[C@H](OC(N)=O)[C@@H](OC)/C=C\C=C(/C)C(=O)NC(=CC2=O)C3=O)cc1
IC50 / nM: 12
--
CPD_SMILES: CO[C@H]1/C=C\C=C(/C)C(=O)NC2=CC(=O)C(NC(=O)c3ccc(CN4CCN(c5ccc(Cl)cc5)CC4)cc3)=C(C[C@@H](C)C[C@H](OC)[C@H](O)[C@@H](C)/C=C(\C)[C@@H]1OC(N)=O)C2=O
IC50 / nM: 9

###

# reported IC50; entries follow
Target: Heat shock protein HSP90 (Homo sapiens, UniProt P07900+P08238)
Experiment: […] human epidermal growth factor 2 (Her-2) degradation in MCF-7 cells
Assay type: cell-based
Details: mcf7

CPD_SMILES: CO[C@H]1/C=C\C=C(/C)C(=O)NC2=CC(=O)C(NC(=O)c3ccc(CN4CCN(C5CCCCC5)CC4)cc3)=C(C[C@@H](C)C[C@H](OC)[C@H](O)[C@@H](C)/C=C(\C)[C@@H]1OC(N)=O)C2=O
VALUE_UNITS: nM
QUALIFIER_SIGN: =
IC50: 600
--
CPD_SMILES: CCN(Cc1ccccc1)Cc1ccc(C(=O)NC2=C3C[C@@H](C)C[C@H](OC)[C@H](O)[C@@H](C)/C=C(\C)[C@H](OC(N)=O)[C@@H](OC)/C=C\C=C(/C)C(=O)NC(=CC2=O)C3=O)cc1
VALUE_UNITS: nM
QUALIFIER_SIGN: =
IC50: 140
--
CPD_SMILES: CO[C@H]1/C=C\C=C(/C)C(=O)NC2=CC(=O)C(NC(=O)c3ccc(F)cc3)=C(C[C@@H](C)C[C@H](OC)[C@H](O)[C@@H](C)/C=C(\C)[C@@H]1OC(N)=O)C2=O
VALUE_UNITS: nM
QUALIFIER_SIGN: =
IC50: 250
--
CPD_SMILES: CO[C@H]1/C=C\C=C(/C)C(=O)NC2=CC(=O)C(NC(=O)c3ccc(CN4CCN(c5ccc([N+](=O)[O-])cc5)CC4)cc3)=C(C[C@@H](C)C[C@H](OC)[C@H](O)[C@@H](C)/C=C(\C)[C@@H]1OC(N)=O)C2=O
VALUE_UNITS: nM
QUALIFIER_SIGN: =
IC50: 200
--
CPD_SMILES: CO[C@H]1/C=C\C=C(/C)C(=O)NC2=CC(=O)C(NC(=O)OCCCCN3CCOCC3)=C(C[C@@H](C)C[C@H](OC)[C@H](O)[C@@H](C)/C=C(\C)[C@@H]1OC(N)=O)C2=O
VALUE_UNITS: nM
QUALIFIER_SIGN: =
IC50: 500
--
CPD_SMILES: CCOC(=O)NC1=C2C[C@@H](C)C[C@H](OC)[C@H](O)[C@@H](C)/C=C(\C)[C@H](OC(N)=O)[C@@H](OC)/C=C\C=C(/C)C(=O)NC(=CC1=O)C2=O
VALUE_UNITS: nM
QUALIFIER_SIGN: =
IC50: 260
--
CPD_SMILES: CO[C@H]1/C=C\C=C(/C)C(=O)NC2=CC(=O)C(NC(=O)c3ccc(CCl)cc3)=C(C[C@@H](C)C[C@H](OC)[C@H](O)[C@@H](C)/C=C(\C)[C@@H]1OC(N)=O)C2=O
VALUE_UNITS: nM
QUALIFIER_SIGN: =
IC50: 550
--
CPD_SMILES: CO[C@H]1/C=C\C=C(/C)C(=O)NC2=CC(=O)C(NC(=O)c3ccc(CN4CCc5ccccc5C4)cc3)=C(C[C@@H](C)C[C@H](OC)[C@H](O)[C@@H](C)/C=C(\C)[C@@H]1OC(N)=O)C2=O
VALUE_UNITS: nM
QUALIFIER_SIGN: =
IC50: 200
--
CPD_SMILES: CO[C@H]1/C=C\C=C(/C)C(=O)NC2=CC(=O)C(NC(=O)c3ccc(CN4CCCCC4)cc3)=C(C[C@@H](C)C[C@H](OC)[C@H](O)[C@@H](C)/C=C(\C)[C@@H]1OC(N)=O)C2=O
VALUE_UNITS: nM
QUALIFIER_SIGN: >
IC50: 10000
--
CPD_SMILES: COc1ccc(N2CCN(Cc3ccc(C(=O)NC4=C5C[C@@H](C)C[C@H](OC)[C@H](O)[C@@H](C)/C=C(\C)[C@H](OC(N)=O)[C@@H](OC)/C=C\C=C(/C)C(=O)NC(=CC4=O)C5=O)cc3)CC2)cc1
VALUE_UNITS: nM
QUALIFIER_SIGN: =
IC50: 220

###

This listing pairs molecules with measured IC50.
Target: Heat shock protein HSP90 (Homo sapiens, UniProt P07900+P08238)
Experiment: Concentration required to inhibit biotin-GM binding to recombinant heat shock protein 90(rHsp90)
Assay type: protein assay
EXPERIMENTAL_READOUT: IC50 (nM)

CPD_SMILES: CO[C@H]1/C=C\C=C(/C)C(=O)NC2=CC(=O)C(NC(=O)c3ccc(CCl)cc3)=C(C[C@@H](C)C[C@H](OC)[C@H](O)[C@@H](C)/C=C(\C)[C@@H]1OC(N)=O)C2=O
EXPERIMENTAL_READOUT: IC50
NUMBER: 4000
//
CPD_SMILES: CO[C@H]1/C=C\C=C(/C)C(=O)NC2=CC(=O)C(NC(=O)c3ccc(CN4CCN(c5ccc([N+](=O)[O-])cc5)CC4)cc3)=C(C[C@@H](C)C[C@H](OC)[C@H](O)[C@@H](C)/C=C(\C)[C@@H]1OC(N)=O)C2=O
EXPERIMENTAL_READOUT: IC50
NUMBER: 1000
//
CPD_SMILES: CO[C@H]1/C=C\C=C(/C)C(=O)NC2=CC(=O)C(NC(=O)c3ccc(F)cc3)=C(C[C@@H](C)C[C@H](OC)[C@H](O)[C@@H](C)/C=C(\C)[C@@H]1OC(N)=O)C2=O
EXPERIMENTAL_READOUT: IC50
NUMBER: 1500
//
CPD_SMILES: CO[C@H]1/C=C\C=C(/C)C(=O)NC2=CC(=O)C(NC(=O)OCc3ccc(OC(C)=O)cc3)=C(C[C@@H](C)C[C@H](OC)[C@H](O)[C@@H](C)/C=C(\C)[C@@H]1OC(N)=O)C2=O
EXPERIMENTAL_READOUT: IC50
NUMBER: 1000
//
CPD_SMILES: C=CCNC(=O)NC1=C2C[C@@H](C)C[C@H](OC)[C@H](O)[C@@H](C)/C=C(\C)[C@H](OC(N)=O)[C@@H](OC)/C=C\C=C(/C)C(=O)NC(=CC1=O)C2=O
EXPERIMENTAL_READOUT: IC50
NUMBER: 35000
